Target: MERTK (UniProt Q12866)
Sequence (Q12866 whole entry, looked up): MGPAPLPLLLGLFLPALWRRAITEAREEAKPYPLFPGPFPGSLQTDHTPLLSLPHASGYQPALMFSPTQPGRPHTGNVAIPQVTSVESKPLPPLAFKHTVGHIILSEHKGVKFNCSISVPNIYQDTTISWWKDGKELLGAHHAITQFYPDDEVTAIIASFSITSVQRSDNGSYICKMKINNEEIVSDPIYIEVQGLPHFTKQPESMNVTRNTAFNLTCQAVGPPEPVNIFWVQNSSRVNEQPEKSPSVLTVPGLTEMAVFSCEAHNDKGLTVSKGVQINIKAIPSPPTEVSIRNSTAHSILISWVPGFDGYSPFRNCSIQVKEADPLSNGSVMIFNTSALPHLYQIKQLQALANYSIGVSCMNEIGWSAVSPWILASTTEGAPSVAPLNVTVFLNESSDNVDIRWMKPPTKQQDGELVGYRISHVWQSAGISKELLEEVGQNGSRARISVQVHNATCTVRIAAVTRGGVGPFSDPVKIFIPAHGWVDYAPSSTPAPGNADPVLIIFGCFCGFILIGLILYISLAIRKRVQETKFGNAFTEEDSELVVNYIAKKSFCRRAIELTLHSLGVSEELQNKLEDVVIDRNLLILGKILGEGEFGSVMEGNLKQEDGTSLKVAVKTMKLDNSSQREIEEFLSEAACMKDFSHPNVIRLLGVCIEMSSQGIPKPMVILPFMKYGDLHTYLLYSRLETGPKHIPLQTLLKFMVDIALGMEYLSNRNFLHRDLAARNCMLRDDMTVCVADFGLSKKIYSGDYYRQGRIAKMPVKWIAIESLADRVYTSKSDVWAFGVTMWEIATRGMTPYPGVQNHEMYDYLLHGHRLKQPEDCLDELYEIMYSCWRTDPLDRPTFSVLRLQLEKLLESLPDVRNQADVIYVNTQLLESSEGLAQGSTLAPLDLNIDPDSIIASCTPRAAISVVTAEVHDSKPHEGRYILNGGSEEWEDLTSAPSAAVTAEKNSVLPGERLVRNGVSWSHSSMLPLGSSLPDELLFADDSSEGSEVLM
Assay: phosphorylation enrichment, bacterial display (enrichment ratio); higher = better substrate or ligand; peptides without Tyr show the background;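 note: 11-residue human phosphosite peptides and single-mutation variants displayed on the E. coli surface, counted by deep sequencing, each peptide's frequency after selection divided by its frequency in the unselected input library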;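 note: frequency after pTyr selection over input frequency; kinase dosed for 20-30% of maximal phosphorylation in three min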
Assignment: determine reported phosphorylation enrichment for the given sequences.
Numbers only.

Answered cases to consult:
[[record]]
sequence_text = "YEREQYADRTR [RBM4_Y355_A359T]"
measured_value = 0.448

[[record]]
sequence_text = "GDYYRSLAEVA [YWHAG_Y133_Y133S]"
measured_value = 0.663

[[record]]
sequence_text = "DTCPPYVLSQV [GJB4_Y237_G242V]"
measured_value = 0.432

[[record]]
sequence_text = "TKEPKYGGAGS [KIAA1210_Y1615_E1616G]"
measured_value = 0.384

[[record]]
sequence_text = "THPFLYLTLEI [MLH1_Y293_S295T]"
measured_value = 0.524


Please go through the list and note phosphorylation enrichment for each sequence.
1. YSNVLYRPRGP [TMIGD2_Y197_A202P]
2. KKHIPYRQHKS [CSNK1G2_Y206_E208Q]
3. AEPNIYQEKLS [USP54_Y1233_D1231N]
4. FSSLGYPLPEG [ZSWIM4_Y87_P89L_YF]

1. 0.856
2. 1.07
3. 0.339
4. 0.519

Please go through the list and note phosphorylation enrichment for each sequence.
1. QGQHWYSSSDT [CASP10_Y9_K14T]
2. QPGTDYKIFLF [FN1_Y1970_YF]
3. PYTDPYYDYEI [ZC3H18_Y371_A368T]
4. KSPDSYQKILP [ATM_Y1415_L1420P]
5. IDNKMYDPKMN [ENPP1_Y280]

1: 0.811; 2: 0.673; 3: 3.26; 4: 0.414; 5: 0.304

Please go through the list and note phosphorylation enrichment for each sequence.
1. APSGNYVACGG [GNB1_Y111]
2. EERKTYVNTML [TEK_Y1102_T1106M]
3. SIKDKYVTAVF [KCNH2_Y611_L615V_YF]
4. AGADGYDYLAP [FOXL2_Y186_G187D]
5. GTVRDYPDFNP [ANXA3_Y15_S19N]
6. IVGLLYRLLTE [SETX_Y1978]

1: 0.437; 2: 0.354; 3: 0.443; 4: 0.647; 5: 0.304; 6: 0.71

Please go through the list and note phosphorylation enrichment for each sequence.
1. VLALWYYYLTH [ZDHHC23_Y127]
2. YDKEYYSVHNK [MET_Y1235]

2.99
0.441

====

Assignment: determine reported phosphorylation enrichment for the given sequences.
System: Fer (mouse)
Assay: phosphorylation enrichment, bacterial display (enrichment ratio); higher = better substrate or ligand; peptides without Tyr show the background
Give bare numbers.

Answered cases to consult:
[[record]]
sequence_text = "RQQQDYWLKDV [ANPEP_Y600_I603K]"
metric = "phosphorylation enrichment"
measured_value = 0.495

[[record]]
sequence_text = "PTTKSYFPHFD [HBA1_Y43_T42S]"
metric = "phosphorylation enrichment"
measured_value = 0.497

[[record]]
sequence_text = "WKESWYSMRKM [FGB_Y475_G472E]"
metric = "phosphorylation enrichment"
measured_value = 0.535

[[record]]
sequence_text = "ESMLRYDVFGG [STOX1_Y607_E608D_YF]"
metric = "phosphorylation enrichment"
measured_value = 0.536

[[record]]
sequence_text = "YRKNIYNVKST [SYNE2_Y575]"
metric = "phosphorylation enrichment"
measured_value = 0.425


Please go through the list and note phosphorylation enrichment for each sequence.
1. LINSVYGCSRQ [TMPRSS6_Y290_T287N]
2. ENRLDYGSAWA [AR_Y395_P392R]
3. TTKVSYRASQP [MKI67_Y1737]

0.863
0.352
0.432

Please go through the list and note phosphorylation enrichment for each sequence.
1. ISHVAYCVLGK [TRRAP_Y892_R893C]
2. TNYPLYLRSLE [MTM1_Y71_R69P]

0.952
0.555

Please go through the list and note phosphorylation enrichment for each sequence.
1. QSLEPYTKQQL [STAT3_Y640_V637L]
2. DWWQEYVLNES [TGM1_Y267_R264W]
3. TRGLEYIVPLM [CLCN4_Y548_G544R]
4. LWKWKYEELKE [CCDC102B_Y299]

[0.424, 0.678, 0.409, 0.712]

Please go through the list and note phosphorylation enrichment for each sequence.
1. KPIETYFSKNF [PLP1_Y50_L46P_YF]
2. VKPENYRRLDV [VHL_Y175_I180V]
3. APTSGYQEFVH [IL4R_Y575]
4. SQINLYQDVML [ZNF806_Y33_A28S]
5. DGQVNYEEFVQ [CALM1_Y139]
6. SQSAKYDMAED [TTC21B_Y1213_I1208S]

1: 0.379; 2: 0.334; 3: 0.401; 4: 13.9; 5: 0.659; 6: 0.509

Please go through the list and note phosphorylation enrichment for each sequence.
1. LKVDVYGRSHK [FUT3_Y222]
2. VFLGAYDRFLP [SLC22A5_Y486_YF]
3. LGLDEYLDKLK [FMNL2_Y352]
4. NMHSTYAKLAA [SEC22B_Y193]

1: 0.441; 2: 1.18; 3: 0.933; 4: 0.34

Please go through the list and note phosphorylation enrichment for each sequence.
1. VDTRAYFTSAT [MT-CO1_Y304]
2. RSDEDYLFREE [POR_Y573_YF]
3. FAKTQYPDVYA [CRX_Y63]
4. YSMGCYEISLG [HMGCL_Y198]
5. SSTAMYSAPGR [PSMB1_Y8]
6. HRTLVYGGIFL [FBP1_Y259]
7. HNLPIYEGFAL [ACTA1_Y168_V165L_YF]
8. MNPPPYSQLLS [FGF23_Y154_F157L]

1: 0.256; 2: 0.891; 3: 0.4; 4: 2.77; 5: 0.857; 6: 1.01; 7: 21.9; 8: 0.483

Please go through the list and note phosphorylation enrichment for each sequence.
1. NFATLYLKIFH [PDE6B_Y219_YF]
2. KEELAYLKKNH [KRT14_Y248]
3. GYAGKYIAMVM [CYP19A1_Y441_C437Y]
4. RKIMGYSIRTI [IDS_Y490_I485R]
5. ARKCKYFKKHE [NFIX_Y40_R38C]
6. RLLVVYPWTER [HBB_Y36_Q40E]

[0.502, 0.375, 0.545, 0.619, 0.443, 0.37]

Please go through the list and note phosphorylation enrichment for each sequence.
1. GADAIYDHINE [UQCR10_Y44]
2. SVICTYSPALN [TP53_Y126_T123I]
3. QGQHWYSSSDK [CASP10_Y9]
4. KLNNEYLELNF [MME_Y497_YF]
5. PQQLWYTHEKK [UBTF_Y207]
6. KLLRLYAVVTR [LYN_Y306_V303L]
7. NYADPYRQLQY [CTNND2_Y503]

1: 2.82; 2: 0.651; 3: 0.579; 4: 0.552; 5: 0.339; 6: 0.51; 7: 0.464

====

Biological target: Fes (UniProt P07332)
Sequence (P07332 whole entry, looked up): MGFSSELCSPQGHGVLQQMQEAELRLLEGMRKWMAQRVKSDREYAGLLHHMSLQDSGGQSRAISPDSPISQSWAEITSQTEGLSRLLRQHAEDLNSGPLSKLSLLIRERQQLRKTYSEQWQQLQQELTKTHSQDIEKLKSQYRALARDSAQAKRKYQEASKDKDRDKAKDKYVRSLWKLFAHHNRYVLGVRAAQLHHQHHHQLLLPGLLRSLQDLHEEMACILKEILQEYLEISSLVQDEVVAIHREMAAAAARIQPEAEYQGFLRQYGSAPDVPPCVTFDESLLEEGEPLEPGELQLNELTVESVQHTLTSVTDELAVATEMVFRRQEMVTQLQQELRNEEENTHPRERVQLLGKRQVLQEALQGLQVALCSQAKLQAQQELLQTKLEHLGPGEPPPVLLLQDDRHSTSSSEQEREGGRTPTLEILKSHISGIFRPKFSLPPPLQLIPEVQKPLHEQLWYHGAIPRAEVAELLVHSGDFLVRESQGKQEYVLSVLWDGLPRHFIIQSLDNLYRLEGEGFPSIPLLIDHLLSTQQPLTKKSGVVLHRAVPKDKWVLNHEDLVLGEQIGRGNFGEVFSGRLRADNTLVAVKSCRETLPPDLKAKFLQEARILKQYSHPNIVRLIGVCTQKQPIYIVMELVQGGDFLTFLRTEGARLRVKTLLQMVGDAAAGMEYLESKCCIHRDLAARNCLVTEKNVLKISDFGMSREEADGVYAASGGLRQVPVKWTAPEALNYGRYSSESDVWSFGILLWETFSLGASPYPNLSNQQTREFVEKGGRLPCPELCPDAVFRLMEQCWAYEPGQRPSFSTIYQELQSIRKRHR
Experiment: phosphorylation enrichment, bacterial display (enrichment ratio); higher = better substrate or ligand; peptides without Tyr show the background
Metric: phosphorylation enrichment
Numbers only.

[[record]]
sequence_text = "LKALKYKSMKI [ITGA11_Y1098]"
metric = "phosphorylation enrichment"
measured_value = 0.701


Please go through the list and note phosphorylation enrichment for each sequence.
1. TKLKDYFIFNK [CCDC42_Y149_A144T_YF]
2. RPSELYYSKIS [SMG1_Y2253_G2258S]
3. KIDAKYKKKIK [WDR19_Y1230_E1235K]
4. KKHIPYRQHKS [CSNK1G2_Y206_E208Q]
5. GISDEYHVIRR [GCDH_Y398_H403R]
6. ILTLKYLIEHG [ACTG1_Y69_P70L]
7. EHFSYYGMKAV [SLC15A2_Y61_R57H]

1: 0.766; 2: 1.02; 3: 0.809; 4: 3.45; 5: 0.792; 6: 1.32; 7: 0.765

====

Assignment: determine reported phosphorylation enrichment for the given sequences.
Tested on: Fer (mouse)
Test: phosphorylation enrichment, bacterial display (enrichment ratio); higher = better substrate or ligand; peptides without Tyr show the background

Answered cases to consult:
[[record]]
sequence_text = "IDSTPYRQWFE [RPS8_Y109_YF]"
system_under_test = "Fer (mouse)"
metric = "phosphorylation enrichment"
measured_value = 0.406

[[record]]
sequence_text = "KDIENHIQDGK [RAD50_Y964_Y964H]"
system_under_test = "Fer (mouse)"
metric = "phosphorylation enrichment"
measured_value = 0.414

[[record]]
sequence_text = "SQAPGYSFTAA [CYCS_Y47_G42S_YF]"
system_under_test = "Fer (mouse)"
metric = "phosphorylation enrichment"
measured_value = 0.546


Please go through the list and note phosphorylation enrichment for each sequence.
1. TFWKKYCTFWK [CCDC70_Y125_R126C]
2. LLFRVYGLESL [INSR_Y94]

1. 0.364
2. 0.757
